test: Phase 1 oral iron interaction study, Cohort 3 (fasting): dried ferrous sulfate slow release; assay type: in vivo, human; settings: male, human, plasma, oral, 150 mg; read-out: t1/2, LS geometric mean (converted)
ENDPOINT: half-life (h)
Write it as a number; the unit h goes unstated.

For reference, reported half-life for O=C(O)CNC(=O)c1ncc(-c2cccc(Cl)c2)cc1O stands at 5.17

* * *

assay: Phase I single-dose study, moderate hepatic impairment versus normal hepatic function; format: in vivo, human; conditions: both sexes, human, plasma, oral, 450 mg, single 450 mg, Normal Liver Function, mean ± SD; read-out: AUC0-inf, plasma, total
ENDPOINT: AUC(0-inf) (µg·h/mL)
Write it as a number; the unit µg·h/mL goes unstated.

For reference, reported AUC(0-inf) for O=C(O)CNC(=O)c1ncc(-c2cccc(Cl)c2)cc1O [Compound 1] stands at 397
